# assay-summary: [3H]Thymidine incorporation assay (cytotoxicity, CC50)
# condition-context: human
outcome-measure: CC50 at 72 h

Known CC50 at 72 h results, listed for orientation:
1. CC(C)(C)C#Cc1cc(N(Cc2cccnc2)C(=O)[C@H]2CC[C@H](C)CC2)c(C(=O)O)s1 [Compound 1]    10 to 100 µM
2. CC(C)(C)C#Cc1cc(N(CC(=O)O)C(=O)[C@H]2CC[C@H](C)CC2)c(C(=O)O)s1 [Compound 2]    > 100 µM
3. Cn1ccc(CN(c2cc(C#CC(C)(C)C)sc2C(=O)O)C(=O)[C@H]2CC[C@H](C)CC2)n1 [Compound 71]    10 to 100 µM
4. CC(C)(C)C#Cc1cc(N(C(=O)[C@H]2CC[C@H](C)CC2)C2CC2)c(C(=O)O)s1 [Compound 16]    10 to 100 µM
5. CC(C)(C)C#Cc1cc(N(C(=O)[C@H]2CC[C@H](C)CC2)[C@H]2C[C@@H](CO)C2)c(C(=O)O)s1 [Compound 76]    > 100 µM

Give reported CC50 at 72 h value for CC(C)N(c1cc(C#CC(F)(F)F)sc1C(=O)O)C(=O)[C@H]1CC[C@H](C)CC1 [Compound 23]
10 to 100 µM

Annotate the compound C=CCO[C@H]1CC[C@H](N(c2cc(C#CC(C)(C)C)sc2C(=O)O)C(=O)[C@H]2CC[C@H](C)CC2)CC1 [Compound 12] with its measured CC50 at 72 h.
10 to 100 µM

Supply CC50 at 72 h value. Item: CC(C)C#Cc1cc(N(C(=O)[C@H]2CC[C@H](C)CC2)C2CCN(C(=O)CCCCCN)CC2)c(C(=O)O)s1 [Compound 95]
10 to 100 µM

Determine from records and report CC50 at 72 h for CC(C)(C)C#Cc1cc(N(C(=O)[C@H]2CC[C@H](C)CC2)[C@H]2CCNC2)c(C(=O)O)s1 [Compound 57]
> 100 µM
